These entries and their values trace back to patent US9409882B2.

# tgt: UniProt P07711
# Sequence (P07711 114-333): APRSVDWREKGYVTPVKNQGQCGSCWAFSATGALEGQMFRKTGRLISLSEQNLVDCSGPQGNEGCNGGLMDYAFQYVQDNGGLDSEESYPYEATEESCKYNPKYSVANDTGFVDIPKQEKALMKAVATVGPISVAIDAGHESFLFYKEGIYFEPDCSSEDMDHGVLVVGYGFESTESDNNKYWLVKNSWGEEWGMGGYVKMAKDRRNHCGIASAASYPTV
measured-metric: IC50 (nM)

(1) N#CC1(NC(=O)[C@@H]2C[C@@H](S(=O)(=O)c3ccc(OCC(F)(F)F)cc3Cl)CN2C(=O)C2(c3ncc(Cl)cc3F)CC2)CC1 [Example 6]
(2) N#CC1(NC(=O)[C@@H]2C[C@@H](S(=O)(=O)c3ccccc3F)CN2C(=O)C2(c3ncc(I)cc3F)CC2)CC1 [Example 41]
(3) N#CC1(NC(=O)[C@@H]2C[C@@H](Sc3ccccn3)CN2C(=O)C2(c3ncc(Cl)cc3F)CC2)CC1 [Example 12]
In: Could you please order the items by IC50, going from the lowest number to the highest? # the answer lists labels in the order requested
Out: 2, 1, 3
(2: 3 nM, 1: 44.5 nM, 3: 8230 nM)
